Subject of test: BCR-FGFR1 Ba/F3 (Homo sapiens, UniProt P11362)
Construct: host or cells: Ba/F3; the other entry of the earlier key: BCR (P11274, Breakpoint cluster region protein)
Sequence (P11362 478-767 limits assumed): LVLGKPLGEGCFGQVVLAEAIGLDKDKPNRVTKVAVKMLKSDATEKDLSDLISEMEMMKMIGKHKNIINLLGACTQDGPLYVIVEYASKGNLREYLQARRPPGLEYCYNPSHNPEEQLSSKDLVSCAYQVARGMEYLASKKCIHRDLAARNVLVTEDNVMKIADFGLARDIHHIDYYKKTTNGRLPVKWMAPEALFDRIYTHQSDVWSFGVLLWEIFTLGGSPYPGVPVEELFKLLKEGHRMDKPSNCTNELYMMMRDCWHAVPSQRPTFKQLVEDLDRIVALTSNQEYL
Test method notes: Ba/F3 cell viability assay (CellTiter-Glo 2.0)
Assay type: cell-based
Experimental conditions: Ba/F3 BCR-FGFR1 cells, 48 hours
Source text: Experimental Purpose: Recombinant kinase fusions are transduced into parental Ba/F3, which becomes dependent upon this constitutive kinase activity for IL3-independent survival. Inhibition of kinase activity leads to cell death, which is monitored using CellTiter-Glo® 2.0 (Promega) which measures intracellular ATP concentration that in turn serves as a marker for viability. BCR-FGFR4 Ba/F3, BCR-FGFR1 Ba/F3 and FGFR3-BAIAP2L1 Ba/F3 were obtained from Advanced Cellular Dynamics (Seattle, WA) […]
Listed below: IC50 values for each entry.
Measured quantity: IC50

>>> result("Cc1cc(-c2n[nH]c3ccc(O[C@H](C)c4c(Cl)cncc4Cl)cc23)cnc1N[C@@H]1CCOC1 [Example 158]")
"250 to 1000 nM"
>>> result("Cc1ncc(Cl)c([C@@H](C)Oc2ccc3[nH]nc(-c4ccc(O[C@@H]5CCOC5)nc4)c3c2)c1Cl [Example 147]")
"> 1000 nM"
>>> result("C[C@@H](Oc1ccc2[nH]nc(-c3ccc(N)nc3)c2c1)c1c(Cl)cncc1Cl [Example 8]")
"0.1 to 100 nM"
>>> result("C[C@@H](Oc1ccc2[nH]nc(-c3ccc(NC4CC5(C4)CN(S(C)(=O)=O)C5)nc3)c2c1)c1c(Cl)cncc1Cl [Example 159]")
"0.1 to 100 nM"
>>> result("Cc1ncc(Cl)c([C@@H](C)Oc2ccc3[nH]nc(-c4ccc(O[C@H]5CCOC5)nc4)c3c2)c1Cl [Example 150]")
"250 to 1000 nM"
>>> result("Cc1cnnc(C)c1[C@@H](C)Oc1ccc2[nH]nc(-c3ccc4c(c3)COC3(CCN(C(C)C)CC3)O4)c2c1 [Example 112]")
"0.1 to 100 nM"
>>> result("CCN1CCC2(CC1)OCc1cc(-c3n[nH]c4ccc(O[C@H](C)c5c(C)cnnc5C)cc34)ccc1O2 [Example 106]")
"0.1 to 100 nM"
>>> result("Cc1ncc(Cl)c([C@@H](C)Oc2ccc3[nH]nc(-c4ccc5c(c4)COC4(CCN(S(C)(=O)=O)CC4)O5)c3c2)c1Cl [Example 163]")
"250 to 1000 nM"
>>> result("C[C@@H](Oc1ccc2[nH]nc(-c3ccc4c(c3)C(=O)CC3(CCNCC3)O4)c2c1)c1c(Cl)cncc1Cl [Example 92]")
"250 to 1000 nM"
>>> result("CCN1CCC2(CC1)OCc1cc(-c3n[nH]c4ccc(O[C@H](C)c5c(Cl)cncc5Cl)cc34)ccc1O2 [Example 96]")
"100 to 250 nM"
>>> result("CCN1CCC2(CCc3cc(-c4n[nH]c5ccc(O[C@H](C)c6c(C)cnnc6C)cc45)ccc3O2)CC1 [Example 111]")
"0.1 to 100 nM"
>>> result("Cc1cc(-c2n[nH]c3ccc(O[C@H](C)c4c(Cl)cncc4Cl)cc23)cnc1NC1CCOCC1 [Example 151]")
"250 to 1000 nM"
>>> result("CNC(=O)c1ccc(-c2n[nH]c3ccc(O[C@H](C)c4c(Cl)cncc4Cl)cc23)cn1 [Example 9]")
"100 to 250 nM"
>>> result("C[C@@H](Oc1ccc2[nH]nc(-c3ccc(OC4CC5(C4)CN(S(C)(=O)=O)C5)nc3)c2c1)c1c(Cl)cncc1Cl [Example 152]")
"100 to 250 nM"

---

Measured Kd values are reported for all entries that follow.
Subject of test: FGFR2 (Homo sapiens, UniProt P21802)
Construct: made in house; host or cells: E. coli derived from BL21, infected with T7 phage
Sequence (P21802 22-821): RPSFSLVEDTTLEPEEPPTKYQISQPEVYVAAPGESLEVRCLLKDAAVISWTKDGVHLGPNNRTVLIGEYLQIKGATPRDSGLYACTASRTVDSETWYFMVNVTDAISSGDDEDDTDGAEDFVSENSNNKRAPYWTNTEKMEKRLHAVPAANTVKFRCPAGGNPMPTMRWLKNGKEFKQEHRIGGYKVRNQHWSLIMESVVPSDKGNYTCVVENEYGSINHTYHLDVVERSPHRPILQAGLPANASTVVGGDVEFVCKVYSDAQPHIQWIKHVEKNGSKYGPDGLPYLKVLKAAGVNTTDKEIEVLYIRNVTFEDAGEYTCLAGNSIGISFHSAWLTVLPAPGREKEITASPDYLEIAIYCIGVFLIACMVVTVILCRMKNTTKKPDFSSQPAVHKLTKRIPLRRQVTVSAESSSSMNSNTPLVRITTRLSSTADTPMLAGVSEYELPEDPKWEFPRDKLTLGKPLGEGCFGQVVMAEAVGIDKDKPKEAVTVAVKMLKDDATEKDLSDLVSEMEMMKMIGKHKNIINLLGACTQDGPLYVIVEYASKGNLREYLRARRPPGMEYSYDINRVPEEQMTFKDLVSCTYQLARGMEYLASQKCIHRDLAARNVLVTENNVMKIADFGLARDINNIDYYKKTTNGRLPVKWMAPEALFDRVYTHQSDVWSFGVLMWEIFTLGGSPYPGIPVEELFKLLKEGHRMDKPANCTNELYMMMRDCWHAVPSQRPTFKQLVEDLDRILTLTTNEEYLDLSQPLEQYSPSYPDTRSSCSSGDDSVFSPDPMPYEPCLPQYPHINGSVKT
Test method notes: Kinase binding assay (kinase-tagged T7 phage, qPCR), Kd
Experimental conditions: read-out: FGFR2 (Kd nM)
Measured quantity: Kd

>>> result("COc1cc(-c2n[nH]c3ccc(O[C@H](C)c4c(Cl)cncc4Cl)cc23)cc(C#N)c1OC [Example 81]")
"> 1000 nM"
>>> result("COc1cc2[nH]nc(-c3cnc4c(c3)N(S(C)(=O)=O)CCO4)c2cc1O[C@H](C)c1c(Cl)cncc1Cl [Example 140]")
"250 to 1000 nM"
>>> result("Cc1cc(-c2n[nH]c3ccc(O[C@H](C)c4c(C)cnnc4C)cc23)cc(C#N)c1OC1CCN(C(C)C)CC1 [Example 110]")
"0.1 to 100 nM"
>>> result("COc1cc(-c2n[nH]c3ccc(O[C@H](C)c4c(C)cnnc4C)cc23)cc(C#N)n1 [Example 100]")
"250 to 1000 nM"
>>> result("COc1ncc(-c2n[nH]c3ccc(O[C@H](C)c4c(Cl)cncc4Cl)cc23)cc1NC(=O)CCN(C)C [Example 31]")
"> 1000 nM"
>>> result("CC(C)N1CCC(Oc2ccc(-c3n[nH]c4ccc(O[C@H](C)c5c(Cl)cncc5Cl)cc34)cc2C#N)CC1 [Example 124]")
"0.1 to 100 nM"
>>> result("COc1ncc(-c2n[nH]c3ccc(O[C@H](C)c4c(C)cnnc4C)cc23)cc1C#N [Example 88]")
"250 to 1000 nM"

---

Subject of test: FGFR4 (Homo sapiens, UniProt P22455)
Construct: made in house; host or cells: E. coli derived from BL21, infected with T7 phage
Sequence (P22455 22-802): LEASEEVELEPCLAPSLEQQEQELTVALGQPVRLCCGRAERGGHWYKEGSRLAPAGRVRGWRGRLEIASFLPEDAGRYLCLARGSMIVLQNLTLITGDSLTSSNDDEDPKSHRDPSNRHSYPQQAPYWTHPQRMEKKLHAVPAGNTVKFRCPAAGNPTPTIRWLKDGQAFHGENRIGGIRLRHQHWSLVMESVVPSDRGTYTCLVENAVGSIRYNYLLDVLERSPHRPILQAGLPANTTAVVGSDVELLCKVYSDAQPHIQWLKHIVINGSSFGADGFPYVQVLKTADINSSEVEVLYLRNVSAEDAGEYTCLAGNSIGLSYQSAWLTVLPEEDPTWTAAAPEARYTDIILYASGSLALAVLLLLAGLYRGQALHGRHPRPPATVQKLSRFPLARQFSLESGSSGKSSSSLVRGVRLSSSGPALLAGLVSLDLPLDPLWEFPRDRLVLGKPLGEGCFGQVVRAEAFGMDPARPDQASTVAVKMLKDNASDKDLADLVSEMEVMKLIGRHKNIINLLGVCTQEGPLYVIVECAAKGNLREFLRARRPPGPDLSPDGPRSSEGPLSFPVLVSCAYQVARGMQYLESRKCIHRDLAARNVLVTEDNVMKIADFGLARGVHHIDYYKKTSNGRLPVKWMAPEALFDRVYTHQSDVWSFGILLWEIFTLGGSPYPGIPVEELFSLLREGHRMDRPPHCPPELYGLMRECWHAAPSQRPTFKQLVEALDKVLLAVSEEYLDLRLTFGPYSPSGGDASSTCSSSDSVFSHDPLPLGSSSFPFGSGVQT
Test method notes: Kinase binding assay (kinase-tagged T7 phage, qPCR), Kd
Structures can show the parent of a compound that is named as a salt.
Measured quantity: Kd

>>> result("C[C@@H](Oc1ccc2[nH]nc(-c3ccc4c(c3)COC3(CCNCC3)O4)c2c1)c1c(Cl)cncc1Cl [Example 94, TFA salt]")
"0.1 to 100 nM"

---

Subject of test: FGFR3 (Homo sapiens)
Construct: made in house; host or cells: E. coli derived from BL21, infected with T7 phage
Sequence (P22607 23-806): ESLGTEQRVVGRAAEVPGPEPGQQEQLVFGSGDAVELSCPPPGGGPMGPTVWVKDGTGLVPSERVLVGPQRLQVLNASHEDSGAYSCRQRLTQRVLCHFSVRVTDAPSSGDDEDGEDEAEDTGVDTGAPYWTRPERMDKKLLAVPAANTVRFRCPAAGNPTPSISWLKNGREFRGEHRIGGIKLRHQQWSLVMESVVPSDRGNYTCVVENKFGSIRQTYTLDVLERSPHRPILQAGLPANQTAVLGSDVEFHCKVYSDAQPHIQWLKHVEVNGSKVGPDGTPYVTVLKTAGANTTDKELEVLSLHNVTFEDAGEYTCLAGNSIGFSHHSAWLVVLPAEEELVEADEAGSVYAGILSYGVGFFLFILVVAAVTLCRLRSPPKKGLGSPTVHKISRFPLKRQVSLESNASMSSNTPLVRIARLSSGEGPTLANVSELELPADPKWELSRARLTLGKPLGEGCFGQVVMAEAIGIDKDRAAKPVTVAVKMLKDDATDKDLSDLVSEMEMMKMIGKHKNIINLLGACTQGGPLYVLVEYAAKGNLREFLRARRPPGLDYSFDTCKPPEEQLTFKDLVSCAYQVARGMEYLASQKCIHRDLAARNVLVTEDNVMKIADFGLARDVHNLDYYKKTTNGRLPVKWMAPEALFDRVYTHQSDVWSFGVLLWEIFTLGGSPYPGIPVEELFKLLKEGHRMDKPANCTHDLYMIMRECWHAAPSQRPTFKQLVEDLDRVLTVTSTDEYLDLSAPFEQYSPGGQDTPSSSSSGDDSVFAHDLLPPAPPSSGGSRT
Test method notes: Kinase binding assay (kinase-tagged T7 phage, qPCR), Kd
Experimental conditions: read-out: FGFR3 (Kd nM)
Measured quantity: Kd

>>> result("COCCOc1cc(C#N)cc(-c2n[nH]c3ccc(O[C@H](C)c4c(C)cnnc4C)cc23)c1 [Example 75]")
"0.1 to 100 nM"
>>> result("Cc1cnnc(C)c1[C@@H](C)Oc1ccc2[nH]nc(-c3cnc(N(C)C)c(C#N)c3)c2c1 [Example 89]")
"0.1 to 100 nM"
>>> result("CCN1CCC2(CC1)CC(=O)c1cc(-c3n[nH]c4ccc(O[C@H](C)c5c(Cl)cncc5Cl)cc34)ccc1O2 [Example 95]")
"0.1 to 100 nM"
>>> result("Cc1ncc(Cl)c([C@@H](C)Oc2ccc3[nH]nc(-c4ccc5c(c4)COC4(CCN(CC(F)(F)F)CC4)O5)c3c2)c1Cl [Example 167]")
"0.1 to 100 nM"
>>> result("Cc1cc(-c2n[nH]c3ccc(O[C@H](C)c4c(Cl)cncc4Cl)cc23)cnc1N[C@@H]1CCOC1 [Example 158]")
"0.1 to 100 nM"
>>> result("CCN1CCC2(CC1)OCc1cc(-c3n[nH]c4ccc(O[C@H](C)c5c(C)cnnc5C)cc34)ccc1O2 [Example 106]")
"0.1 to 100 nM"
>>> result("C[C@@H](Oc1ccc2[nH]nc(-c3ccc(N)nc3)c2c1)c1c(Cl)cncc1Cl [Example 8]")
"0.1 to 100 nM"
>>> result("COc1ncc(-c2n[nH]c3ccc(O[C@H](C)c4c(Cl)cncc4Cl)cc23)cc1N [Example 1]")
"0.1 to 100 nM"
>>> result("C[C@@H](Oc1ccc2[nH]nc(-c3cnc4c(c3)N(C(=O)OCCCN(C)C)CCO4)c2c1)c1c(Cl)cncc1Cl [Example 43]")
"0.1 to 100 nM"
>>> result("C[C@@H](Oc1ccc2[nH]nc(-c3ccnc(NCCO)c3)c2c1)c1c(Cl)cncc1Cl [Example 36]")
"0.1 to 100 nM"
>>> result("COc1cc(-c2n[nH]c3ccc(O[C@H](C)c4c(Cl)cnc(F)c4Cl)cc23)cc2c1OC1(CCN(C(C)C)CC1)OC2 [Example 123]")
"0.1 to 100 nM"
>>> result("C[C@@H](Oc1ccc2[nH]nc(-c3cnc4c(c3)N(CCN(C)C)CCO4)c2c1)c1c(Cl)cncc1Cl [Example 51]")
"250 to 1000 nM"
>>> result("C[C@@H](Oc1ccc2[nH]nc(-c3cnc(N)c(C#N)c3)c2c1)c1c(Cl)cncc1Cl [Example 30]")
"0.1 to 100 nM"
>>> result("COc1cc(OC(C)C)cc(-c2n[nH]c3ccc(O[C@H](C)c4c(C)cnnc4C)cc23)c1 [Example 60]")
"> 1000 nM"
>>> result("Cc1cnnc(C)c1[C@@H](C)Oc1ccc2[nH]nc(-c3cc(C#N)cc(OC(F)(F)F)c3)c2c1 [Example 61]")
"> 1000 nM"
